Reported viability, T/C by item:
# System: 454973-116-R2-J3-PDC spheroids, percent test/control viability;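 further: spheroids exposed to compounds for 7 days before readout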
# test_summary: Anticancer human tumor 454973-116-R2-J3-PDC patient-derived pancreatic carcinoma cell line growth inhibition [CLK]
# test_context: second compound 1 µM; first compound 1 µM; active compounds read low; spheroids with HUVEC and MSC

[
  {
    "molecule": "COC1C=CCC(C)C(C)S(=O)(=O)NC(=O)c2ccc3c(c2)N(CC2CCC21)CC1(CCCc2cc(Cl)ccc21)CO3 (centres undefined) + CN1CCN(c2cc(C(=O)Nc3cc4cc(-c5cnn(C)c5)ccc4cn3)ccn2)CC1",
    "uom": "%",
    "viability, T/C": 0.16
  },
  {
    "molecule": "C#Cc1c(F)ccc2cc(O)cc(-c3ncc4c(N5CC6CCC(C5)N6)nc(OCC56CCCN5CC(F)C6)nc4c3F)c12 (centres undefined) + CNC(=O)c1ccc(Nc2nc(OC3CCCC3)c3c(-c4ccc5nc(C)oc5c4)c[nH]c3n2)c(OC)c1",
    "uom": "%",
    "viability, T/C": 12.7
  },
  {
    "molecule": "C=C(F)C(=O)N1CCN(c2nc(OCC3CCCN3C)nc3c2CCN(c2cccc4cccc(Cl)c24)C3)CC1CC#N (centres undefined) + CN1CCN(c2cc(C(=O)Nc3cc4cc(-c5cnn(C)c5)ccc4cn3)ccn2)CC1",
    "uom": "%",
    "viability, T/C": 0.11
  },
  {
    "molecule": "CC(=O)O[C@H]1C(=O)[C@@]2(C)[C@H]([C@H](OC(=O)c3ccccc3)[C@]3(O)C[C@H](OC(=O)[C@H](O)[C@@H](NC(=O)c4ccccc4)c4ccccc4)C(C)=C1C3(C)C)[C@]1(OC(C)=O)CO[C@@H]1C[C@@H]2O + CNC(=O)c1ccc(Nc2nc(OC3CCCC3)c3c(-c4ccc5nc(C)oc5c4)c[nH]c3n2)c(OC)c1",
    "uom": "%",
    "viability, T/C": 60.5
  }
]

meta.source: PubChem BioAssay AID2060618
